Target: T1, 4H3926-bH
T1 chain: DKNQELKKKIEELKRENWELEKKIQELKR
Assay: two-hybrid library CCNG1;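 note: natural log of median RNA to DNA barcode read ratio; higher means stronger binding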
Below, each entry is listed with its recorded interaction score.
Assay endpoint: interaction score

Binder: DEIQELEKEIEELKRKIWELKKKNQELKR [4H112-bH]
Assay endpoint: interaction score
Recorded number: 0.23

Binder: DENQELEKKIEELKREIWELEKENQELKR [4H1348-bH]
Assay endpoint: interaction score
Recorded number: 0.857

Binder: DKNQELEKKNEELERKIWELKKEIQELER [4H3497-bH]
Assay endpoint: interaction score
Recorded number: -0.573

Binder: DKNQELEKKNEELEREIWELEKKIQELKR [4H3462-bH]
Assay endpoint: interaction score
Recorded number: 0.869

Binder: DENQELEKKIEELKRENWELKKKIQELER [4H1373-bH]
Assay endpoint: interaction score
Recorded number: 1.67

Binder: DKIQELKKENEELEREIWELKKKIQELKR [4H2702-bH]
Assay endpoint: interaction score
Recorded number: 0.525

Binder: DENQELKKEIEELEREIWELEKKNQELKR [4H1544-bH]
Assay endpoint: interaction score
Recorded number: 0.243

Binder: DKIQQLEQKNQELEQEIQELEWKIQELKQ [4H2438-bN]
Assay endpoint: interaction score
Recorded number: -4.14
